- measurement_target: AChE from Electrophorus electricus (Electrophorus electricus, UniProt O42275)
- Construct: purchased Sigma-Aldrich
- Sequence (O42275 24-633): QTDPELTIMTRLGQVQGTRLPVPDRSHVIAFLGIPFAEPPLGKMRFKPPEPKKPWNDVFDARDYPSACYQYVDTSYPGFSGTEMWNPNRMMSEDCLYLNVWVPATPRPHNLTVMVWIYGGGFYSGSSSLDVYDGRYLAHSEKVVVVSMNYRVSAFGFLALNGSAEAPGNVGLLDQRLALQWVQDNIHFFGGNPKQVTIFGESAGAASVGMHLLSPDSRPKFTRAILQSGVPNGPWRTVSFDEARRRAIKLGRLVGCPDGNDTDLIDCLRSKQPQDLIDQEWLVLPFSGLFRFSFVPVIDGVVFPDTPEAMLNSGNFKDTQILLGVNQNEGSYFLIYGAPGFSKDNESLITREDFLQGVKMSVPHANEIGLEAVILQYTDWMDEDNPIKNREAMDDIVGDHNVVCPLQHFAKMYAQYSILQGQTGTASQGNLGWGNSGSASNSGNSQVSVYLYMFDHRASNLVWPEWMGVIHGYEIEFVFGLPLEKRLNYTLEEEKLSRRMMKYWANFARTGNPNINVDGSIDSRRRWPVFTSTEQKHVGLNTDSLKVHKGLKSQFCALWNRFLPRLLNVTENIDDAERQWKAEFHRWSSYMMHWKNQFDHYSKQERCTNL
- protocol_description: Ellman's assay, AChE inhibition
- Assay type: biochemical
- protocol_conditions: AChE IC50, Ellman's assay, electric eel AChE, pH 8.0, 25 °C
Listing: IC50 of selected molecules
// unit must come after the numeric part

See these solved cases before continuing.
O=C1c2ccccc2C(=O)N1CCCCCCNCc1ccccc1 [Compound 4] | 0.33 µM
O=C1c2ccccc2C(=O)N1CCCNC1CCN(Cc2ccccc2)CC1 [Compound 1] | 18.2 µM
O=C1c2ccccc2C(=O)N1CCCCCCNC1CCN(Cc2ccccc2)CC1 [Compound 2] | 53.7 µM

# IC50 (molecule: O=C1c2ccccc2C(=O)N1CCCCCNCc1ccccc1 [Compound 5] ) is 0.17 µM

Per the record, O=C1c2ccccc2C(=O)N1CCCCCNCc1ccccc1F [Compound 6] has IC50 of 0.0872 µM

// IC50 value for O=C1c2ccccc2C(=O)N1CCCCCCNC1CCN(Cc2cccc(Cl)c2)CC1 [Compound 3] : 44 µM

The values you see were collected from paper PMC3634507.
